Here we gather IC50 data for RON (Homo sapiens, UniProt Q04912) reported by several publications.

# input Entry under review: Nc1nccc(Oc2c(F)cc(NC(=O)c3cnn(-c4cccnn4)c3C(F)(F)F)cc2F)c1C1CC1 . Reported IC50?
# output < 50 nM

# input Entry Nc1nccc(Oc2c(F)cc(NC(=O)c3cnn(-c4ncccn4)c3C(F)(F)F)cc2F)c1I please
# output < 50 nM

# input Do the same for Nc1nccc(Oc2c(F)cc(NC(=O)c3cnn(-c4ccccn4)c3C(F)(F)F)cc2F)c1I please
# output < 50 nM

# input Similarly, Nc1nccc(Oc2c(F)cc(NC(=O)c3cnn(-c4ncccc4Cl)c3C(F)(F)F)cc2F)c1C#CCO ?
# output < 50 nM

# input Try this compound next: Nc1ncnc(Oc2ccc(NC(=O)c3cnn(-c4ncccn4)c3C(F)(F)F)cc2F)c1Cl
# output < 50 nM

# input # repeat for Nc1nccc(Oc2c(F)cc(NC(=O)c3cnn(-c4ccccc4)c3C(F)(F)F)cc2F)c1I
# output < 50 nM

# input Next record, please: CN1CCC(n2c(=O)[nH]c3nccc(Oc4ccc(NC(=O)c5cnn(-c6ccccc6)c5C(F)(F)F)cc4F)c32)CC1
# output < 50 nM

# input Please do the same for Nc1nccc(Oc2ccc(NC(=O)c3cnn(-c4ncccc4F)c3C(F)(F)F)cc2F)c1Cl as well.
# output < 50 nM

# input Another compound to look at: Nc1nccc(Oc2c(F)cc(NC(=O)c3cnn(-c4ncccc4F)c3C(F)(F)F)cc2F)c1I
# output < 50 nM

# input Now give it for Nc1nccc(Oc2ccc(NC(=O)c3cnn(-c4nc(-c5ccccc5)cs4)c3C(F)(F)F)cc2F)c1Cl too.
# output > 5000 nM

# input Another: CCc1c(C(=O)Nc2ccc(Oc3ccnc4[nH]c(=O)n(C(C)C)c34)c(F)c2)cnn1-c1ccccc1
# output < 50 nM

# input Field entry: Nc1nccc(Oc2c(F)cc(NC(=O)c3cnn(-c4ncccn4)c3C(F)(F)F)cc2F)c1C1CC1
# output < 50 nM

# input And C=CC(=O)Nc1nccc(Oc2ccc(NC(=O)c3ncn(-c4ccccc4)c3C(F)(F)F)cc2F)c1Cl ?
# output 50 to 500 nM

# input // query: Cc1nc(C(=O)Nc2ccc(Oc3ccnc(N)c3Cl)c(F)c2)c(C)n1-c1ccccc1
# output 50 to 500 nM

# input Again, but for Cc1ccc(-n2ncc(C(=O)Nc3ccc(Oc4ccnc(N)c4Cl)c(F)c3)c2C(F)(F)F)cc1
# output > 5000 nM

# input Consider next the compound Nc1nccc(-c2cc(Oc3ccc(NC(=O)c4cc(C5CC5)cn(-c5ccc(F)cc5)c4=O)cc3F)ccc2O)n1 in the same way.
# output 23 nM

# input Next entry: Nc1nccc(-c2cc(Oc3ccc(NC(=O)c4ccc(C(F)(F)F)n(-c5ccc(F)cc5)c4=O)cc3F)ccc2O)n1
# output 163 nM

# input Now consider Nc1nccc(-c2cc(Oc3ccc(NC(=O)c4cccn(-c5ccc(F)cc5)c4=O)cc3F)ccc2O)n1 and answer again.
# output 241 nM

# input // next record CCc1c(C(=O)Nc2ccc(Oc3ccnc(N)c3Cl)c(F)c2)cnn1-c1ncccc1F
# output < 50 nM

# input Next record, please: CC(C)n1c(=O)[nH]c2nccc(Oc3ccc(NC(=O)c4cnn(-c5cc(C6CC6)ccn5)c4C(F)(F)F)cc3F)c21
# output 50 to 500 nM

# input What about this compound? Nc1ncnc(Oc2ccc(NC(=O)c3cnn(-c4ccncn4)c3C(F)(F)F)cc2F)c1Cl
# output 500 to 5000 nM

# input Try this compound next: Nc1nccc(Oc2ccc(NC(=O)c3cnn(-c4cncnc4)c3C(F)(F)F)cc2F)c1Cl
# output 50 to 500 nM

# input Also, CCc1c(C(=O)Nc2ccc(Oc3ccnc(N)c3Cl)c(F)c2)cnn1-c1ccccc1 please.
# output 50 to 500 nM

# input Same again, this time with CC(C)c1c(Oc2c(F)cc(NC(=O)c3cnn(-c4ccccc4)c3C(F)(F)F)cc2F)ccnc1N
# output < 50 nM

# input Moving on to the next compound: Cc1ccc(C(=O)Nc2ccc(Oc3ccnc(NC(=O)C4CC4)c3Cl)c(F)c2)c(=O)n1-c1ccc(F)cc1
# output 25 nM

# input Check Cc1ccc(C(=O)Nc2ccc(Oc3ccnc(N)c3Cl)c(F)c2)c(=O)n1-c1ccc(F)cc1 too.
# output 1 nM

# input Then what about the compound Nc1nccc(Oc2c(F)cc(NC(=O)c3cnn(-c4ncccc4Cl)c3C(F)(F)F)cc2F)c1CN1CCOCC1 ?
# output < 50 nM

# input What do we get for Nc1nccc(Oc2c(F)cc(NC(=O)c3cnn(-c4ncccn4)c3C(F)(F)F)cc2F)c1C#CCO ?
# output < 50 nM

# input Queued: Cc1c(C(=O)Nc2ccc(Oc3ncnc(N)c3Cl)c(F)c2)nnn1-c1ccccc1F
# output 50 to 500 nM

# input Similarly, Nc1nccc(-c2cc(Oc3ccc(NC(=O)c4ccc(CO)n(-c5ccc(F)cc5)c4=O)cc3F)ccc2O)n1 ?
# output 133 nM
